- Tested on: HeLa cell line
- Assay Remarks: Proliferation assay (HeLa cell line)
- Format: cell-based
- Particulars: Homo sapiens, 96 h, read-out: Biological Assay 2: Proliferation assay (HeLa cell line) median IC50
IC50 values for the molecules below.
Write down the numeric answer in µM and omit the unit.

Solved entries:
Cpd Smiles: CCOc1cc(F)c(Cn2nc(-c3nc(N)c(OCCOC)c(Nc4ccncn4)n3)c3ccccc32)c(F)c1
Experimental Target: HeLa cell line
Numeric Result: 3.7

Cpd Smiles: Nc1cc(Nc2ccncc2)nc(-c2nn(Cc3ccccc3F)c3ccccc23)n1
Experimental Target: HeLa cell line
Numeric Result: 3.6

Cpd Smiles: CCOc1cc(F)c(Cn2nc(-c3nc(N)c(N4CCOCC4)c(Nc4ccncn4)n3)c3ccccc32)c(F)c1
Experimental Target: HeLa cell line
Numeric Result: 9

Cpd Smiles: CCOc1cc(F)c(Cn2nc(-c3nc(N)c(OCCOC)c(Nc4ccncc4)n3)c3ccccc32)c(F)c1
Experimental Target: HeLa cell line
Numeric Result: 3.9

Measured IC50, CCOc1cc(F)c(Cn2nc(-c3nc(N)c(OCCO)c(Nc4ccncc4)n3)c3ccccc32)c(F)c1 : 3.5

Input CCOc1cc(F)c(Cn2nc(-c3nc(Nc4ccncc4)c(OCCO)c(Nc4ccncc4)n3)c3ccccc32)c(F)c1 . Output IC50: 1.2

* * *

- Tested on: HeLa cell line
- Assay Remarks: Proliferation assay (HeLa cell line)
- Type: cell-based
- Particulars: Homo sapiens, 96 h, read-out: Biological Assay 2: Proliferation assay (HeLa cell line) median IC50
Measurement Label: IC50 (nM)
Write the answer as a number in nM, unit excluded.

Before answering, review these 2 worked examples.
Cpd Smiles: CCOc1cc(F)c(Cn2nc(-c3nc(N)nc(Nc4ccncc4)n3)c3ccccc32)c(F)c1
Experimental Target: HeLa cell line
Measurement Label: IC50
Numeric Result: 2900
--
Cpd Smiles: CCOc1cc(F)c(Cn2nc(-c3nc(N)c(N4CCOCC4)c(Nc4ccncc4)n3)c3ccccc32)c(F)c1
Experimental Target: HeLa cell line
Measurement Label: IC50
Numeric Result: 3600

Data point: CCOc1cc(F)c(Cn2nc(-c3nc(Nc4ccncc4)c(OC)c(Nc4ccncc4)n3)c3ccccc32)c(F)c1 ; IC50 = 1500

* * *

- Test system: DU145 cell line
- Assay Remarks: Proliferation assay (DU145 cell line)
- Type: cell-based
- Particulars: Homo sapiens, DU-145, 96 h; DU145, prostate cancer; 4 days incubation, crystal violet staining; read-out: Biological Assay 2: Proliferation assay (DU145 cell line) median IC50
Measurement Label: pIC50
// pIC50: -log10(molar conc.)

Briefly, pIC50 measured for Fc1ccccc1Cn1nc(-c2nc(Nc3ccncc3)cc(Nc3ccncc3)n2)c2ccccc21 : 6.44

* * *

- Experimental Target: catalytic domain of human Bub1 (amino acids 704-1085) (Homo sapiens, UniProt O43683)
- Construct: catalytic domain of human Bub1 (amino acids 704-1085); His6 (N); made in house; host or cells: Hi5 insect cells
- Sequence (O43683 704-1085): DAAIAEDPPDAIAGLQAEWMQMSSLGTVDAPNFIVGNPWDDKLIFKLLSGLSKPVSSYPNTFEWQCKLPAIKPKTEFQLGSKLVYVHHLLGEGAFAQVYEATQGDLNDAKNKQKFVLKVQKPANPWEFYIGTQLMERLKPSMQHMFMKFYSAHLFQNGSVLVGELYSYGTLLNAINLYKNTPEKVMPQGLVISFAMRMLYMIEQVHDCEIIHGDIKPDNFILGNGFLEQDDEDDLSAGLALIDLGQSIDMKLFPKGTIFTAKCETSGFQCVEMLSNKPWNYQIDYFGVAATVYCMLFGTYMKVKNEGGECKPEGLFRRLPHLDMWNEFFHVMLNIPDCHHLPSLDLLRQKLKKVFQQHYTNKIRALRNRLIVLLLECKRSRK
- Assay Remarks: Bub1 kinase assay (TR-FRET)
- Assay type: biochemical
- Particulars: TR-FRET, 10 μM ATP, 1 μM peptide substrate; read-out: Biological Assay 1: Bub1 kinase assay median IC50
Lab note: compare IC50 with 40 nM, writing YES if less and NO if equal or more.

Is IC50 strictly under 40 nM for the entry CCOc1cc(F)c(Cn2nc(-c3nc(Nc4ccncc4)c(NS(=O)(=O)C(F)(F)F)c(Nc4ccncc4)n3)c3ccccc32)c(F)c1 [Example 2-4-11] ?
NO

Strictly below 40 nM in IC50? CCOc1cc(F)c(Cn2nc(-c3nc(Nc4ccncc4)c(OC)c(Nc4ccncc4)n3)c3ccccc32)c(F)c1 [Example 2-4-2]
NO

Check if IC50 falls below 40 nM for CCOc1cc(F)c(Cn2nc(-c3nc(Nc4ccncc4)nc(Nc4ccncc4)n3)c3ccccc32)c(F)c1 [Example 2-4-5] .
NO

Lab log: compare recorded IC50 with 40 nM; is it strictly lower for COCC(=O)Nc1cc(Nc2ccncc2)nc(-c2nn(Cc3ccccc3F)c3ccccc23)n1 [Example 2-2-2] ?
NO

Quick check: IC50 of CCOc1cc(F)c(Cn2nc(-c3nc(N)c(OC)c(Nc4ccncc4)n3)c3ccccc32)c(F)c1 [Example 2-3-2] under 40 nM?
YES

Does the reported IC50 of CCOc1cc(F)c(Cn2nc(-c3nc(N)c(NS(=O)(=O)CC)c(Nc4ccncc4)n3)c3ccccc32)c(F)c1 [Example 2-3-15] stay below 40 nM?
YES

In the record for CC(=O)Nc1cc(N(c2ccncc2)c2ccncc2)nc(-c2nn(Cc3ccccc3F)c3ccccc23)n1 [Example 2-2-3] , is IC50 less than 40 nM?
NO
